The values you see were collected from PubChem BioAssay (NCI).

Tested on: UO-31 renal
experiment: NCI tumour cell line growth inhibition, 48 h
testReadout: TGI

molecule=O=C1c2ccccc2NC(=S)[C@@H]2CCCN12 systemundertest="UO-31 renal" testvalue="> 100 µM"
molecule="OC(c1cc2ccc(C(F)(F)F)cc2c2cc(C(F)(F)F)ccc12)C1CCCCN1 (stereo not given)" systemundertest="UO-31 renal" testvalue="2.71 µM"
molecule=N#CNC(N)=Nc1ccc(Cl)cc1 systemundertest="UO-31 renal" testvalue="> 100 µM"
molecule=CC(C)(C)c1cc(C(=O)/C=C/c2ccc3c(c2)OCO3)cc(C(C)(C)C)c1O systemundertest="UO-31 renal" testvalue="> 81 µM"
molecule="CC(=O)OC1C(COC(=O)c2ccccc2)OC(Nc2ncc(-c3ccc(Br)cc3)s2)C(OC(=O)c2ccccc2)C1OC(=O)c1ccccc1 (stereo not given)" systemundertest="UO-31 renal" testvalue="> 100 µM"
